testDescription: The drug is tested on Bacteroides pectinophilus strain: ATCC43243 for biotransformation. The drug concentrations were measured before and after a 12-h incubation by liquid-chromatography-coupled mass spectrometry (LC–MS)
experimentalSetup: 2 µM
valueKind: Bacterial Biotransformation

{"compound": "Nc1c2c(nc3ccccc13)CCCC2 [TACRINE]", "recordedResult": "Compound NOT metabolized"}
{"compound": "CC(C(=O)O)c1ccc2c(c1)Cc1cccnc1O2 (stereo not drawn) [PRANOPROFEN]", "recordedResult": "Compound metabolized"}
{"compound": "C#C[C@]1(OC(C)=O)CC[C@H]2[C@@H]3CCC4=C/C(=N/O)CC[C@@H]4[C@H]3CC[C@@]21CC [NORGESTIMATE]", "recordedResult": "Compound NOT metabolized"}
{"compound": "Cc1nc2n(c(=O)c1CCN1CCC(c3noc4cc(F)ccc34)CC1)CCCC2O (stereo not drawn) [PALIPERIDONE]", "recordedResult": "Compound NOT metabolized"}
{"compound": "CN1CCN2c3ccccc3Cc3ccccc3C2C1 (stereo not drawn) [MIANSERIN]", "recordedResult": "Compound NOT metabolized"}

QUERY: Entry under review: OCCN1CCN(CCCN2c3ccccc3Sc3ccc(C(F)(F)F)cc32)CC1 [FLUPHENAZINE] . Reported Bacterial Biotransformation?
RESULT: Compound NOT metabolized

QUERY: GET /values?readout=Bacterial Biotransformation&item= C=C[C@H]1CN2CC[C@H]1C[C@H]2[C@H](O)c1ccnc2ccc(OC)cc12.C=C[C@H]1CN2CC[C@H]1C[C@H]2[C@H](O)c1ccnc2ccc(OC)cc12.O.O.O=S(=O)(O)O [QUININE SULFATE]
RESULT: Compound NOT metabolized

QUERY: Entry under review: O=C(O)c1cc(/N=N/c2ccc(S(=O)(=O)Nc3ccccn3)cc2)ccc1O [SULFASALAZINE] . Reported Bacterial Biotransformation?
RESULT: Compound NOT metabolized

QUERY: Look at this compound and give its reported Bacterial Biotransformation. CC(=O)OCC(=O)[C@@]12N=C(C)O[C@@H]1C[C@H]1[C@@H]3CCC4=CC(=O)C=C[C@]4(C)[C@H]3[C@@H](O)C[C@@]12C [DEFLAZACORT]
RESULT: Compound metabolized

QUERY: Using the record for CN1CCC(=C2c3ccccc3CC(=O)c3sccc32)CC1.O=C(O)/C=C/C(=O)O [KETOTIFEN FUMARATE] , report its Bacterial Biotransformation.
RESULT: Compound NOT metabolized

Numbers sourced from ChEMBL document CHEMBL5303573.
